Origin of measurements: patent US20250228832A1

Molecular target: human M5 receptor (Homo sapiens)
Construct: expressed in transfected cells
Sequence (P08912 1-532): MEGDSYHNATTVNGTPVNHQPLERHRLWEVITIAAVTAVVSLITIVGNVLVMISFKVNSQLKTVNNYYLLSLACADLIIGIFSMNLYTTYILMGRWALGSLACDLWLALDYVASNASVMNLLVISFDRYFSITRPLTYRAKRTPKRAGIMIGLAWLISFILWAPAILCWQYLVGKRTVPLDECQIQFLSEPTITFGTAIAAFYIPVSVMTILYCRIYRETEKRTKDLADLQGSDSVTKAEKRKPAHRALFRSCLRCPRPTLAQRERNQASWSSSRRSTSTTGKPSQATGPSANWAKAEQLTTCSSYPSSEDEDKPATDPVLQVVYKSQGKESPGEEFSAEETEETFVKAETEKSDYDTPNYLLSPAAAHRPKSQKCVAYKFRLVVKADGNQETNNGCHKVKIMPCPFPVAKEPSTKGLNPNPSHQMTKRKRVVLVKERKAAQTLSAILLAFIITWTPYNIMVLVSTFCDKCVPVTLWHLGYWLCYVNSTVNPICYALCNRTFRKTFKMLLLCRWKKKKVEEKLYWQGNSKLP
Test: HTRF IP-One curve shift assay, M5
Assay type: cell-based
Details: M5; MK-4710 concentration 3330 nM; read-out: Emax
yes (1) means recorded Emax is 80% or above; no (0) means it is below 80%.

compound="CC1OC2(CS1)CN1CCC2CC1 (centres unmarked) [cevimeline, Cevimeline, reference compound]" experimental_target="human M5 receptor (Homo sapiens)" classification="yes (1)"
compound="CCCCCCCOc1nsnc1C1=CCCCN1C [KTX-593]" experimental_target="human M5 receptor (Homo sapiens)" classification="no (0)"

Q) Assess whether reported Emax for CCCCCCOc1nsnc1C1=CCCN(C)C1 [xanomeline, reference compound] sits at 80% or higher.
A) yes (1)
